target: Mu-type opioid receptor (Rattus norvegicus, UniProt P33535)
Sequence (P33535 whole entry): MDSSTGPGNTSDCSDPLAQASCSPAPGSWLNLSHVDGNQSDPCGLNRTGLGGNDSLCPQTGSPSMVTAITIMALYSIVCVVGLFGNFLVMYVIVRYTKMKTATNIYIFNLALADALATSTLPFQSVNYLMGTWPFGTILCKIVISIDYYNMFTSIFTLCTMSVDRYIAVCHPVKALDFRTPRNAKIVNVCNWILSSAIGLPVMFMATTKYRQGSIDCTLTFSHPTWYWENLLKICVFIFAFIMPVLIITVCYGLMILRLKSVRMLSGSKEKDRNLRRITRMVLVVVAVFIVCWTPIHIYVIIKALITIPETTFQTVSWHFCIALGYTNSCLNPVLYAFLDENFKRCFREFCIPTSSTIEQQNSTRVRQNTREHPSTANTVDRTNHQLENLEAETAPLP
Just a reminder that ties go to No: only Ki strictly below 20 nM counts as Yes.

Task: Is it true that Ki reported for Oc1ccc2c3c1O[C@H]1c4nc(Cc5ccccc5)nc(-c5ccccc5)c4C[C@@]4(O)[C@@H](C2)N(CC2CC2)CC[C@]314 is less than 20 nM?
Output: No

Task: Is it true that Ki reported for Oc1ccc2c3c1O[C@H]1c4nc(-c5ccccc5)cc(-c5ccccc5)c4C[C@@]4(O)[C@@H](C2)N(CC2CC2)CC[C@]314 is less than 20 nM?
Output: No

Task: Is it true that Ki reported for Oc1ccc2c3c1O[C@H]1c4ncncc4C[C@@]4(O)[C@@H](C2)N(CC2CC2)CC[C@]314 is less than 20 nM?
Output: Yes

Task: Is it true that Ki reported for Oc1ccc2c3c1O[C@H]1c4nc(-c5ccccc5)ncc4C[C@@]4(O)[C@@H](C2)N(CC2CC2)CC[C@]314 is less than 20 nM?
Output: No

Task: Is it true that Ki reported for Oc1ccc2c3c1O[C@H]1c4nc5ccccc5c(-c5ccccc5)c4C[C@@]4(O)[C@@H](C2)N(CC2CC2)CC[C@]314 is less than 20 nM?
Output: No

Task: Is it true that Ki reported for Oc1ccc2c3c1O[C@H]1c4nc(-c5ccccc5)nc(-c5ccccc5)c4C[C@@]4(O)[C@@H](C2)N(CC2CC2)CC[C@]314 is less than 20 nM?
Output: No

Task: Is it true that Ki reported for Cc1ncc2c(n1)[C@@H]1Oc3c(O)ccc4c3[C@@]13CCN(CC1CC1)[C@H](C4)[C@]3(O)C2 is less than 20 nM?
Output: Yes

----------
biological target: Mu-type opioid receptor (Cavia porcellus) (UniProt P97266); experiment: Antagonist potency against mu opioid receptor in guinea pig ileum (GPI) using […]; type: functional, tissue-based
Sequence (P97266 whole entry): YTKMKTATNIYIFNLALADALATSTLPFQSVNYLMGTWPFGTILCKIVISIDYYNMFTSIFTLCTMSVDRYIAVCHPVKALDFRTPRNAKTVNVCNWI
Hi there, I'd appreciate the recorded IC50 ratio for every entry that follows.
When you answer, write just the number.

The measured IC50 ratio that Oc1ccc2c3c1O[C@H]1c4ncc(-c5ccccc5)cc4C[C@@]4(O)[C@@H](C2)N(CC2CC2)CC[C@]314 showed for Mu-type opioid receptor (Cavia porcellus) (UniProt P97266) is 24.6

The measured IC50 ratio that Oc1ccc2c3c1O[C@H]1c4nc(-c5ccccc5)ccc4C[C@@]4(O)[C@@H](C2)N(CC2CC2)CC[C@]314 showed for Mu-type opioid receptor (Cavia porcellus) (UniProt P97266) is 12.4

The measured IC50 ratio that Oc1ccc2c3c1O[C@H]1c4nc(-c5ccccc5)ncc4C[C@@]4(O)[C@@H](C2)N(CC2CC2)CC[C@]314 showed for Mu-type opioid receptor (Cavia porcellus) (UniProt P97266) is 34.1
